Recorded target mRNA knockdown, one value per entry.
Conditions: siRNA; note: test system not given here
HELM strings list units from the 5' end as sugar, base in round brackets, then linkage (d deoxyribose, r ribose, m 2'-O-methyl, p phosphodiester). Strings are as the collection lists them, not checked against the first reports. ss, as = sense and antisense strand; [s4r] = 4'-thioribose
A complete answer gives the number and then names the unit.

Please review the entries below; each comes with its answer.
SUBSTANCE	RESULT
RNA1{r(C)p.r(G)p.r(U)p.r(A)p.r(C)p.r(G)p.r(C)p.r(G)p.r(G)p.r(A)p.r(A)p.r(U)p.r(A)p.r(C)p.r(U)p.r(U)p.r(C)p.[s4r](G)p.[s4r](A)p.r(T)p.r(T)}|RNA2{r(U)p.r(C)p.r(G)p.r(A)p.r(A)p.r(G)p.r(U)p.r(A)p.r(U)p.r(U)p.r(C)p.r(C)p.r(G)p.r(C)p.r(G)p.r(U)p.r(A)p.r(C)p.r(G)p.r(T)p.r(T)}$$$RNA1{StrandType:ss}|RNA2{StrandType:as}$	95.4%
RNA1{r(A)p.r(A)p.r(A)p.r(C)p.r(G)p.r(U)p.r(G)p.r(A)p.r(C)p.r(U)p.r(U)p.m(U)p.r(G)p.r(G)p.r(U)p.r(U)p.r(C)p.r(C)p.r(U)p.r(T)p.r(T)}|RNA2{r(A)p.r(G)p.r(G)p.r(A)p.r(A)p.r(C)p.r(C)p.r(A)p.r(A)p.r(A)p.r(G)p.r(U)p.m(C)p.r(A)p.r(C)p.r(G)p.r(U)p.r(U)p.r(U)p.r(T)p.r(T)}$$$RNA1{StrandType:ss}|RNA2{StrandType:as}$	83%

Note: attention shifts to another entry.
Given item RNA1{r(C)p.r(G)p.[s4r](U)p.r(A)p.r(C)p.r(G)p.r(C)p.r(G)p.r(G)p.r(A)p.r(A)p.[s4r](U)p.r(A)p.r(C)p.[s4r](U)p.[s4r](U)p.r(C)p.r(G)p.r(A)p.r(T)p.r(T)}|RNA2{r(U)p.r(C)p.r(G)p.r(A)p.r(A)p.r(G)p.r(U)p.r(A)p.r(U)p.r(U)p.r(C)p.r(C)p.r(G)p.r(C)p.r(G)p.r(U)p.r(A)p.r(C)p.r(G)p.r(T)p.r(T)}$$$RNA1{StrandType:ss}|RNA2{StrandType:as}$ , the value recorded as its target mRNA knockdown is 96.3%

---

Conditions: siRNA
HELM strings list units from the 5' end as sugar, base in round brackets, then linkage (d deoxyribose, r ribose, m 2'-O-methyl, p phosphodiester). Strings are as the collection lists them, not checked against the first reports. ss, as = sense and antisense strand; [hna] = hexitol nucleic acid; [fl2r] = 2'-fluoro
Recorded target mRNA knockdown, one value per entry.
// note: answer is a bare numeric in %

Please review the entries below; each comes with its answer.
SUBSTANCE	target mRNA knockdown [%]
RNA1{r(A)p.r(G)p.r(A)p.r(A)p.r(G)p.[fl2r](U)p.r(A)p.r(C)p.r(C)p.r(A)p.r(G)p.r(G)p.r(A)p.r(G)p.r(G)p.r(C)p.r(G)p.r(U)p.r(U)p.r(T)p.r(T)}|RNA2{r(A)p.r(A)p.r(C)p.r(G)p.r(C)p.r(C)p.r(U)p.r(C)p.r(C)p.[fl2r](U)p.r(G)p.r(G)p.r(U)p.r(A)p.r(C)p.r(U)p.r(U)p.r(C)p.r(U)p.r(T)p.r(T)}$$$RNA1{StrandType:ss}|RNA2{StrandType:as}$	60
RNA1{r(G)p.r(A)p.r(U)p.r(A)p.r(G)p.r(G)p.r(A)p.r(A)p.r(G)p.r(G)p.r(G)p.r(G)p.r(C)p.r(U)p.r(U)p.r(C)p.r(A)p.r(G)p.r(C)p.r(T)p.r(T)}|RNA2{r(G)p.m(C)p.m(U)p.r(G)p.r(A)p.r(A)p.r(G)p.m(C)p.m(C)p.m(C)p.m(C)p.m(U)p.m(U)p.m(C)p.m(C)p.m(U)p.r(A)p.m(U)p.m(C)p.r(T)p.r(T)}$$$RNA1{StrandType:ss}|RNA2{StrandType:as}$	12
RNA1{[hna](G)p.[hna](A)p.[hna](C)p.r(G)p.r(U)p.r(A)p.r(A)p.r(A)p.r(C)p.r(G)p.r(G)p.r(C)p.r(C)p.r(A)p.r(C)p.r(A)p.r(A)p.[hna](G)p.[hna](U)p.[hna](U)p.d(T)}|RNA2{r(A)p.m(C)p.r(U)p.r(U)p.r(G)p.r(U)p.r(G)p.r(G)p.r(C)p.r(C)p.r(G)p.r(U)p.r(U)p.r(U)p.r(A)p.r(C)p.r(G)p.r(U)p.r(C)p.r(G)p.r(C)}$$$RNA1{StrandType:ss}|RNA2{StrandType:as}$	84
RNA1{m(A)p.r(U)p.m(C)p.r(A)p.m(G)p.r(A)p.m(G)p.r(G)p.m(G)p.r(A)p.m(G)p.r(G)p.m(U)p.r(C)p.m(U)p.r(U)p.m(A)p.r(G)p.m(A)p.r(T)p.r(T)}|RNA2{r(U)p.r(C)p.r(U)p.r(A)p.r(A)p.m(G)p.r(A)p.r(C)p.r(C)p.r(U)p.r(C)p.r(C)p.r(C)p.r(U)p.m(C)p.r(U)p.m(G)p.r(A)p.m(U)p.r(T)p.r(T)}$$$RNA1{StrandType:ss}|RNA2{StrandType:as}$	19

Note: attention shifts to another entry.
Given item RNA1{m(G)p.r(C)p.m(U)p.r(G)p.m(A)p.r(G)p.m(G)p.r(A)p.m(A)p.r(A)p.m(G)p.r(G)p.m(G)p.r(A)p.m(C)p.r(A)p.m(U)p.r(C)p.m(U)p.r(T)p.r(T)}|RNA2{r(A)p.r(G)p.r(A)p.r(U)p.r(G)p.r(U)p.r(C)p.r(C)p.r(C)p.r(U)p.r(U)p.r(U)p.r(C)p.r(C)p.r(U)p.r(C)p.r(A)p.r(G)p.r(C)p.r(T)p.r(T)}$$$RNA1{StrandType:ss}|RNA2{StrandType:as}$ , the value recorded as its target mRNA knockdown is 61
